Target: Integrin alpha-5/beta-1 (Homo sapiens, UniProt P05556+P08648)
Sequence (P05556 21-798 limits assumed): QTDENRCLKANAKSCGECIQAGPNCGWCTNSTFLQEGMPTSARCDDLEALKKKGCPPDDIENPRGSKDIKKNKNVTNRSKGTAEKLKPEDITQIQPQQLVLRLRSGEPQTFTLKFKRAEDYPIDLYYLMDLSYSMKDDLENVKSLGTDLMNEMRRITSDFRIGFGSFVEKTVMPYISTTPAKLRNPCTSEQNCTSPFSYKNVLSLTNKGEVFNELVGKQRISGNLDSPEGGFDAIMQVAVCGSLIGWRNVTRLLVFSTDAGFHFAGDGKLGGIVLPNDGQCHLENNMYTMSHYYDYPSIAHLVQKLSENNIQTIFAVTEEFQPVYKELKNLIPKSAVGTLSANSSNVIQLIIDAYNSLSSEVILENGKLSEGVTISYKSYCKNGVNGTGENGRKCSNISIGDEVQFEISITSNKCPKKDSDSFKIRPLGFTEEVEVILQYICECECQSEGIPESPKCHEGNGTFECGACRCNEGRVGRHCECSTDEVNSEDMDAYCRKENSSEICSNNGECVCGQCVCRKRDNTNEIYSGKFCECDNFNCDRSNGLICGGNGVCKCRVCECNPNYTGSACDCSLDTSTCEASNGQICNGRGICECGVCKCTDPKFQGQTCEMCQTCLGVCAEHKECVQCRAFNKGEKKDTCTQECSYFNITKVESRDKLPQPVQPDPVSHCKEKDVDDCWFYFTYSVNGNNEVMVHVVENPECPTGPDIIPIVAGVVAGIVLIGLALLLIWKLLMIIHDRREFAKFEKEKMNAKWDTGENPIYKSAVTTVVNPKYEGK
Sequence (P08648 42-894 limits assumed): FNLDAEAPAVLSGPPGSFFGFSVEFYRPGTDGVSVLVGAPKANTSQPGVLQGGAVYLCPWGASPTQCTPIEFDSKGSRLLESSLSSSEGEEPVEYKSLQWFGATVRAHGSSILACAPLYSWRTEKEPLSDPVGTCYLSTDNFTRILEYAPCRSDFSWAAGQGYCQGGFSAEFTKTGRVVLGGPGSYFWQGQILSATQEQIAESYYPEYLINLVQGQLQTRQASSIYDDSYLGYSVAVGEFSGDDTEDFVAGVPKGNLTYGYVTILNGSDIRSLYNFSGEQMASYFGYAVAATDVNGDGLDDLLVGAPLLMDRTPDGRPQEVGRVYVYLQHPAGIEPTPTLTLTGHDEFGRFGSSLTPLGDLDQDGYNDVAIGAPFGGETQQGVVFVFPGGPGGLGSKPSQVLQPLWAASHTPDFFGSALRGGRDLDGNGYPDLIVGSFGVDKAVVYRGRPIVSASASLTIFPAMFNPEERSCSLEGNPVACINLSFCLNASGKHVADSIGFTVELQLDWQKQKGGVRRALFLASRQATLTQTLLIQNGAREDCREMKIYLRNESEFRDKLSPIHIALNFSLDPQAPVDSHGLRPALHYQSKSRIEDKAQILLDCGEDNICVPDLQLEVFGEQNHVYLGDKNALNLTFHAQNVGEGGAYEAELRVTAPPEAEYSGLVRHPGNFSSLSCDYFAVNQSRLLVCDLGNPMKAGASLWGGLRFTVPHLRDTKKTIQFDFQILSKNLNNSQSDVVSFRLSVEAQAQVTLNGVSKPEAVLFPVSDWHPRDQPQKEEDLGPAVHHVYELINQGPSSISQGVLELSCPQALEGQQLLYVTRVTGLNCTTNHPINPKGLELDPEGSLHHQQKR
Sequence (P08648 895-1049 limits assumed): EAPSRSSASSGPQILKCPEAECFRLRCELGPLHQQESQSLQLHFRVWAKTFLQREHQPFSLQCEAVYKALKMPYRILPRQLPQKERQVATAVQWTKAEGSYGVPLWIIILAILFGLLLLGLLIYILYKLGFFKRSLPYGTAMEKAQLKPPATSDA
Test: Binding affinity to human integrin alpha5beta1 incubated for 1 hr by ELISA based solid phase integrin binding assay
experimentalEndpoint: IC50 (nM)

[
  {
    "itemSmiles": "COc1ccc(-c2cccc3c(C[C@H]4NC(=O)[C@H](CC(=O)O)NC(=O)CNC(=O)[C@H](CCCNC(=N)N)NC(=O)[C@H](C(C)C)NC4=O)c[nH]c23)cc1",
    "testSystem": "Integrin alpha-5/beta-1 (Homo sapiens, UniProt P05556+P08648)",
    "experimentalEndpoint": "IC50",
    "unitAbbreviation": "nM",
    "measuredValue": 66
  },
  {
    "itemSmiles": "CC(C)[C@@H]1NC(=O)[C@@H](Cc2c[nH]c3c(Br)cccc23)NC(=O)[C@H](CC(=O)O)NC(=O)CNC(=O)[C@H](CCCNC(=N)N)NC1=O",
    "testSystem": "Integrin alpha-5/beta-1 (Homo sapiens, UniProt P05556+P08648)",
    "experimentalEndpoint": "IC50",
    "unitAbbreviation": "nM",
    "measuredValue": 74.3
  }
]

(A) CC(C)[C@@H]1NC(=O)[C@@H](Cc2c[nH]c3ccccc23)NC(=O)[C@H](CC(=O)O)NC(=O)CNC(=O)[C@H](CCCNC(=N)N)NC1=O
(B) CC(C)[C@@H]1NC(=O)[C@@H](Cc2c[nH]c3c(-c4cccc(N)c4)cccc23)NC(=O)[C@H](CC(=O)O)NC(=O)CNC(=O)[C@H](CCCNC(=N)N)NC1=O
Of A and B , whose reported IC50 is the larger number? State your choice using its label.
B
(B: 610 nM, A: 9.9 nM)

(1) CC(C)[C@@H]1NC(=O)[C@@H](Cc2c[nH]c3cc(Cl)ccc23)NC(=O)[C@H](CC(=O)O)NC(=O)CNC(=O)[C@H](CCCNC(=N)N)NC1=O
(2) CC(C)[C@H]1C(=O)N[C@@H](CCCNC(=N)N)C(=O)NCC(=O)N[C@@H](CC(=O)O)C(=O)N[C@H](Cc2c[nH]c3c(Br)cccc23)C(=O)N1C
Of 1 and 2 , whose reported IC50 is the larger number? State your choice using its label.
1
(1: 39.1 nM, 2: 10.2 nM)
